- Measured on: PDE4B2 (GB no. M97515) (Homo sapiens, UniProt Q07343)
- Construct: made in house; host or cells: SF21 insect cells (baculovirus; virus made in SF9 cells)
- Sequence (Q07343 1-564 isoform Q07343-2): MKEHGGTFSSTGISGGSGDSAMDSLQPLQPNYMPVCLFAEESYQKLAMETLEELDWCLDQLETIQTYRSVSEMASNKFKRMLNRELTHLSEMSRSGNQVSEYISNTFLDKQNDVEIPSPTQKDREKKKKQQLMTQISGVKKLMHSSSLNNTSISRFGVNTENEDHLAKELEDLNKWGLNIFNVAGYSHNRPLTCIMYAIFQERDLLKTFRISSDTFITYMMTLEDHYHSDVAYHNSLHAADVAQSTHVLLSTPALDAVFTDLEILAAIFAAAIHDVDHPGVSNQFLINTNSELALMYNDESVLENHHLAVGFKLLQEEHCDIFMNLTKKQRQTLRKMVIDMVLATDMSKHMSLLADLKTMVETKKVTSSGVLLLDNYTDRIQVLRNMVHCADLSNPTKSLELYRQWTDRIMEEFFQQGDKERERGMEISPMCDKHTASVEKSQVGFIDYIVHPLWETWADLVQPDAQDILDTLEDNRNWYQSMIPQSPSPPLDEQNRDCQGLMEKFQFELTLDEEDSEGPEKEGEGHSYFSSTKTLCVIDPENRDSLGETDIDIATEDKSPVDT
- Assay procedure: Inhibition of PDE4B2 activity, Method b (modified SPA test, recombinant PDE expressed in SF21 cells)
- Format: biochemical
- Condition set: 0.5 μM cAMP, read-out: Inhibition of the PDE4 activity, −log IC50 (converted)
In this section, each of the compounds is paired with its reported IC50.

Below are worked cases with known answers.
INPUT: Need IC50 of COCCO[C@@H]1CC[C@H]2N=C(c3ccc(OCC4CC4)c(OCC4CC4)c3)c3cc(OC)c(OC)cc3[C@H]2C1 (racemic) , thanks.
OUTPUT: 0.182 to 6.03 nM

INPUT: Need IC50 of CCOc1cc2c(cc1OC)C(c1ccc(Br)cc1)=N[C@@H]1CC[C@@H](O)C[C@H]21 (racemic) , thanks.
OUTPUT: 0.182 to 6.03 nM

INPUT: Need IC50 of CCOc1cc2c(cc1OC)C(c1ccc(OC(F)(F)C(F)F)cc1)=N[C@@H]1CC[C@@H](O)C[C@H]21 (racemic) , thanks.
OUTPUT: 0.182 to 6.03 nM

Continuing:
INPUT: Need IC50 of COc1cc2c(cc1OC)[C@H]1C[C@H](O)CC[C@H]1N=C2c1ccc(OC(F)F)cc1 (racemic) , thanks.
OUTPUT: 0.182 to 6.03 nM

INPUT: Need IC50 of CCOc1cc2c(cc1OC)C(c1cccc(OC(F)F)c1)=N[C@@H]1CC[C@@H](O)C[C@H]21 (racemic) , thanks.
OUTPUT: 0.182 to 6.03 nM

INPUT: Need IC50 of CCOc1cc2c(cc1OC)C(c1ccc(C#N)cc1)=N[C@@H]1CC[C@@H](O)C[C@H]21 (racemic) , thanks.
OUTPUT: 0.182 to 6.03 nM

INPUT: Need IC50 of CCOc1cc2c(cc1OC)C(c1ccc(C(=O)OC)cc1)=N[C@@H]1CC[C@@H](O)C[C@H]21 (racemic) , thanks.
OUTPUT: 0.182 to 6.03 nM

INPUT: Need IC50 of CCCOc1cc(C2=N[C@@H]3CC[C@@H](O)C[C@@H]3c3cc(OC)c(OC)cc32)ccc1OC (racemic) , thanks.
OUTPUT: 0.182 to 6.03 nM

###

Reported endpoint: melting point

INPUT: Need melting point of COc1cc2c(cc1OC)C1CC(O)CCC1N=C2c1ccc(N(C)C)cc1 (racemic) , thanks.
OUTPUT: 115 to 121 °C

INPUT: Need melting point of COC(=O)c1ccc(C2=NC3CCC(O)CC3c3cc(OC)c(OC)cc32)cc1 (racemic) , thanks.
OUTPUT: 94 to 105 °C

INPUT: Need melting point of COc1cc2c(cc1OC)C1CC(O)CCC1N=C2c1ccc(OCC2CC2)c(OCC2CC2)c1 (racemic) [Compound 7] , thanks.
OUTPUT: 83 to 92 °C

INPUT: Need melting point of COc1cc2c(cc1OC)C1CC(O)CCC1N=C2c1ccc(OCC2CC2)c(OCC2CC2)c1 (racemic) [Compound 13] , thanks.
OUTPUT: 114 to 118 °C

###

Reported endpoint: melting point

INPUT: Need melting point of COc1cc2c(cc1OC)C1CC(O)CCC1N=C2c1ccc(C(=O)O)cc1 (racemic) [Compound 12] , thanks.
OUTPUT: 172 to 183 °C

INPUT: Need melting point of COc1cc2c(cc1OC)C1CC(O)CCC1N=C2c1ccc([N+](=O)[O-])cc1 (racemic) [Compound 11] , thanks.
OUTPUT: 178 to 181 °C

INPUT: Need melting point of COc1ccc(C2=NC3CCC(O)CC3c3cc(OC)c(OC)cc32)cc1OC (racemic) [Compound 10] , thanks.
OUTPUT: 104 to 110 °C

INPUT: Need melting point of COc1cc2c(cc1OC)C1CC(OC(C)=O)CCC1N=C2c1ccc([N+](=O)[O-])cc1 (racemic) [Compound 5] , thanks.
OUTPUT: 77 to 88 °C
